Documented IC50 across a set of molecules
Molecular target: hmGluR5 (Homo sapiens, UniProt P41594)
Assay: Phosphatidylinositol hydrolysis (IP1) assay
Conditions: hmGluR5/L38-20 cells (mouse fibroblast Ltk), [3H]-inositol, 10 μM glutamate, 1 hour; read-out: PI Hydrolysis

// worked examples, IC50 included
Cc1cnc(C#Cc2ccccc2)s1    > 100 µM
Cc1nc(/C=C/c2ccccc2)cs1    1 to 10 µM
CCOC(=O)c1nc(/C=C/c2ccccc2)ns1    10 to 100 µM
C(#Cc1nccs1)c1ccccc1.Cc1ccc(S(=O)(=O)O)cc1    0.1 to 1 µM
Cc1ccc(C#CC2=CCCCC2)s1    > 100 µM

Return IC50 (reported value) for this molecule: Cc1ncsc1C#Cc1ccccc1
10 to 100 µM

Return IC50 (reported value) for this molecule: Cc1nc(C#Cc2ccccc2)sc1C
1 to 10 µM

Return IC50 (reported value) for this molecule: Nc1nc(C#Cc2ccccc2)cs1
0.1 to 1 µM

Return IC50 (reported value) for this molecule: Cc1nc(C#Cc2ccccc2)cs1
≤ 0.1 µM

Return IC50 (reported value) for this molecule: Cc1csc(C=Cc2ccccc2)n1 (mixture of isomers)
10 to 100 µM

###

Target: hmGluR5a receptor (Homo sapiens, UniProt P41594)
Sequence (P41594 21-1180 isoform P41594-2 limits assumed): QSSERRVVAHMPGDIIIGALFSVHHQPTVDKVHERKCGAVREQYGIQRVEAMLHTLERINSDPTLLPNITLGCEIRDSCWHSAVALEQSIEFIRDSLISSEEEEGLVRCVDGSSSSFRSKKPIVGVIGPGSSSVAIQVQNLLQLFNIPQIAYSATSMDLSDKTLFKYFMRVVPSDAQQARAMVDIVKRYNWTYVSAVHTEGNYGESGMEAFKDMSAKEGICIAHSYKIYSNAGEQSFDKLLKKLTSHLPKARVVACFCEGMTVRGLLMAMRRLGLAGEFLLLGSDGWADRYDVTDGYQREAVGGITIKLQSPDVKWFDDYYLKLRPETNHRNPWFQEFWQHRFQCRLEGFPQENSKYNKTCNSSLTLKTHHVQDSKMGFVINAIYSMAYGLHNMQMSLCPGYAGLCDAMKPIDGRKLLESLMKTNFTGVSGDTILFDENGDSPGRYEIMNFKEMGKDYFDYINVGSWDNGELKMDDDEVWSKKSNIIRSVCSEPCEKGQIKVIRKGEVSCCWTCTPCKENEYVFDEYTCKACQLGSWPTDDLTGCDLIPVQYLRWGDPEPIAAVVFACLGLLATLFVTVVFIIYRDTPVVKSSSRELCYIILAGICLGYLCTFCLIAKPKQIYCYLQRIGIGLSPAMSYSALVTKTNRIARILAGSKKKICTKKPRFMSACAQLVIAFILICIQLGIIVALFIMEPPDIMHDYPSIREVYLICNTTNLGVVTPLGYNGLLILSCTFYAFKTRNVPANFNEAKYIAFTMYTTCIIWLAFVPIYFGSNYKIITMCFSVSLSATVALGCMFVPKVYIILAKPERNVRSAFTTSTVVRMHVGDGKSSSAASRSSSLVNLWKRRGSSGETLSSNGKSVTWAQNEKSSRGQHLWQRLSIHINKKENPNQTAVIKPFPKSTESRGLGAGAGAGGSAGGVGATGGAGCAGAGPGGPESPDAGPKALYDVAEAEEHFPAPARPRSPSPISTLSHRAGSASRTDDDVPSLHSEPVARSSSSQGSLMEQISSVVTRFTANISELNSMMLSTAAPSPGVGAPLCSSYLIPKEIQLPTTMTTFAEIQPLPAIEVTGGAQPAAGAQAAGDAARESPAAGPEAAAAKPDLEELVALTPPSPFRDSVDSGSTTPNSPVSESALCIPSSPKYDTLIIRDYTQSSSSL
Experiment: Calcium flux assay
Conditions: hmGluR5a/L38-20 cells (mouse fibroblast Ltk), fura-2, glutamate 10 μM (EC80); read-out: Ca^2+ Flux
pIC50: −log10 of the molar value.
Documented pIC50 across a set of molecules

Return pIC50 (reported value) for this molecule: OCc1nc(/C=C/c2ccccc2)ns1
5.00 to 6.00

###

Documented melting point across a set of molecules

// worked examples, melting point included
Cc1nc(C#Cc2ccccc2)sc1C    55 to 60 °C
Cc1cnc(C#Cc2ccccc2)s1    82 to 83 °C
Brc1csc(C#Cc2ccccc2)n1    79 to 82 °C
OCc1nc(/C=C/c2ccccc2)ns1    119 to 120 °C
CCOC(=O)c1nc(/C=C/c2ccccc2)ns1    79 to 80 °C
Fc1ccc(C#Cc2nccs2)cc1 [Example 12, 2-[(4-Fluorophenyl)ethynyl]-1,3-thiazole]    78 to 79 °C
Cn1ncnc1/C=C/c1ccccc1    67 to 70 °C
Cc1n[nH]c(/C=C/c2ccccc2)n1    131 to 134 °C
C(=C\c1ncno1)/c1ccccc1 [Example 16, 5-[(E)-2-phenylethenyl]-1,2,4-oxadiazole]    53 to 55 °C

Return melting point (reported value) for this molecule: Cc1nc(/C=C/c2ccccc2)no1
166 to 168 °C

###

Molecular target: UniProtKB P41594
Assay: Calcium flux assay
Settings: hmGluR5a/L38-20 cells (mouse fibroblast Ltk), fura-2, glutamate 10 μM (EC80); read-out: Ca^2+ Flux
pIC50: −log10 of the molar value.
result type: pIC50

// worked examples, pIC50 included
Fc1ccc(C#Cc2nccs2)cc1 [Example 12, 2-[(4-Fluorophenyl)ethynyl]-1,3-thiazole]    6.00 to 7.00
Cc1n[nH]c(/C=C/c2ccccc2)n1 [Example 18]    < 5.00
Cc1nc(/C=C/c2ccccc2)no1 [Example 15]    < 5.00
Cc1nc(C#Cc2ccccc2)cs1 [Example 4]    ≥ 8.00
C(=C\c1ncno1)/c1ccccc1 [Example 16, 5-[(E)-2-phenylethenyl]-1,2,4-oxadiazole]    < 5.00

Return pIC50 (reported value) for this compound: Nc1nc(C#Cc2ccccc2)cs1 [Example 5]
7.00 to 8.00

Return pIC50 (reported value) for this compound: Fc1ccccc1C#Cc1nccs1 [Example 13, 2-[(2-Fluorophenyl)ethynyl]-1,3-thiazole]
7.00 to 8.00

Return pIC50 (reported value) for this compound: Brc1csc(C#Cc2ccccc2)n1 [Example 9, 4-bromo-2-(phenylethynyl)-1,3-thiazole]
7.00 to 8.00

Return pIC50 (reported value) for this compound: Cc1ncsc1C#Cc1ccccc1F [Example 7]
6.00 to 7.00

Return pIC50 (reported value) for this compound: Cc1coc(/C=C/c2ccccc2)n1 [Example 1]
5.00 to 6.00

###

Documented IC50 across a set of compounds
Target: hmGluR5 (Homo sapiens, UniProt P41594)
Test: Phosphatidylinositol hydrolysis (IP1) assay
Conditions: hmGluR5/L38-20 cells (mouse fibroblast Ltk), [3H]-inositol, 10 μM glutamate, 1 hour; read-out: PI Hydrolysis

Report IC50 on hmGluR5 (Homo sapiens, UniProt P41594) for this entry: Brc1csc(C#Cc2ccccc2)n1
1 to 10 µM

Report IC50 on hmGluR5 (Homo sapiens, UniProt P41594) for this entry: C(=C\c1ncno1)/c1ccccc1 [Example 16, 5-[(E)-2-phenylethenyl]-1,2,4-oxadiazole]
> 100 µM

Report IC50 on hmGluR5 (Homo sapiens, UniProt P41594) for this entry: Cc1nc(/C=C/c2ccccc2)no1
> 100 µM

Report IC50 on hmGluR5 (Homo sapiens, UniProt P41594) for this entry: Fc1ccc(C#Cc2nccs2)cc1 [Example 12, 2-[(4-Fluorophenyl)ethynyl]-1,3-thiazole]
1 to 10 µM

Report IC50 on hmGluR5 (Homo sapiens, UniProt P41594) for this entry: Cc1ncsc1C#Cc1ccccc1F
> 100 µM

###

Molecular target: hmGluR5 (Homo sapiens)
Assay: Phosphatidylinositol hydrolysis (IP1) assay
Settings: hmGluR5/L38-20 cells (mouse fibroblast Ltk), [3H]-inositol, 10 μM glutamate, 1 hour; read-out: PI Hydrolysis
Experimental: Inositol phophate assays were performed as described by Berridge et al. (1982) (Berridge et al, (1982) Biochem. J. 206:587–5950; and Nakajima et al., J. Biol. Chem. 267:2437–2442 (1992)) with slight modifications. […] The incubations were terminated by the addition of 1 ml ice-cold methanol to each well. […] Scintillant was added to each vial, and the vials shaken, and counted in a scintillation counter after 2 hours. […]
Documented IC50 across a set of molecules

Cc1cccc(C#Cc2nccs2)c1 [Example 11, 2-[(3-methylphenyl)ethynyl]-1,3-thiazole]    0.1 to 1 µM
Cn1ncnc1/C=C/c1ccccc1 [Example 17]    > 100 µM
Cc1n[nH]c(/C=C/c2ccccc2)n1 [Example 18]    > 100 µM
Fc1ccccc1C#Cc1nccs1 [Example 13, 2-[(2-Fluorophenyl)ethynyl]-1,3-thiazole]    0.1 to 1 µM
OCc1nc(/C=C/c2ccccc2)ns1 [Example 20]    > 100 µM

In the following, a different molecule is considered.
Return IC50 (reported value) for this molecule: Cc1coc(/C=C/c2ccccc2)n1 [Example 1]
10 to 100 µM

###

Documented pIC50 across a set of molecules
Molecular target: hmGluR5a receptor (Homo sapiens, UniProt P41594)
Experiment: Calcium flux assay
Conditions: hmGluR5a/L38-20 cells (mouse fibroblast Ltk), fura-2, glutamate 10 μM (EC80); read-out: Ca^2+ Flux
pIC50: −log10 of the molar value.

// worked examples, pIC50 included
Cc1ccc(C#CC2=CCCCC2)s1    < 5.00
Cc1cnc(C#Cc2ccccc2)s1    < 5.00
CCOC(=O)c1nc(/C=C/c2ccccc2)ns1    6.00 to 7.00
Cc1cccc(C#Cc2nccs2)c1 [Example 11, 2-[(3-methylphenyl)ethynyl]-1,3-thiazole]    7.00 to 8.00
Cn1ncnc1/C=C/c1ccccc1    < 5.00
Cc1ncsc1C#Cc1ccccc1    7.00 to 8.00
Cc1csc(C=Cc2ccccc2)n1 (mixture of isomers)    7.00 to 8.00
C(#Cc1nccs1)c1ccccc1.Cc1ccc(S(=O)(=O)O)cc1    ≥ 8.00
Cc1nc(/C=C/c2ccccc2)cs1    6.00 to 7.00

In the following, a different molecule is considered.
Return pIC50 (reported value) for this molecule: Cc1nc(C#Cc2ccccc2)sc1C
≥ 8.00
